Test system: Coxsackievirus B2
Experiment: Antiviral activity against Human coxsackievirus B2 Ohio-1 infected in african green monkey Vero cells after 3 days by plaque reduction assay
Type: functional, organism-based, Coxsackievirus B2 (strain Ohio-1)
Settings: vero
pEC50: −log10 of the molar value.
experimental readout: pEC50

Respond only with pEC50 recorded for "O=C(CN1CCOCC1)Nc1ccc(-c2nc3cc(Cl)c(Cl)cc3[nH]2)cc1"
< 4.00

* * *

Assay: Cytotoxicity against african green monkey Vero cells
Format: cell-based
Conditions: chlorocebus sabaeus
experimental readout: CC50

Respond only with CC50 recorded for "COc1ccc(-c2nc3cc(C(F)(F)F)ccc3[nH]2)c(OC)c1"
> 100 µM

Respond only with CC50 recorded for "COc1ccc(-c2nc3cc([N+](=O)[O-])ccc3[nH]2)c(OC)c1OC"
> 100 µM

Respond only with CC50 recorded for "C[C@@]1(O)[C@H](O)[C@@H](CO)O[C@H]1n1cnc2c(=O)[nH]c(N)nc21"
> 100 µM

Respond only with CC50 recorded for "CC(=O)Nc1ccc(-c2nc3cc(C(F)(F)F)ccc3[nH]2)cc1"
50 µM

Respond only with CC50 recorded for "Nc1ccc(-c2nc3cc(Cl)c(Cl)cc3[nH]2)cc1"
≥ 100 µM

Respond only with CC50 recorded for "NC(=O)c1ncn([C@@H]2O[C@H](CO)[C@@H](O)[C@H]2O)n1"
> 100 µM

Respond only with CC50 recorded for "O=C(CN1CCCC1)Nc1ccc(-c2nc3cc(C(F)(F)F)ccc3[nH]2)cc1"
> 100 µM

Respond only with CC50 recorded for "Cn1c(-c2ccc(N)cc2)nc2cc(C(F)(F)F)ccc21"
> 100 µM

Respond only with CC50 recorded for "O=C(CN1CCOCC1)Nc1ccc(-c2nc3ccccc3[nH]2)cc1"
> 100 µM

Respond only with CC50 recorded for "O=C(CN1CCCC1)Nc1ccc(-c2nc3cc(Cl)c(Cl)cc3[nH]2)cc1"
> 100 µM

Respond only with CC50 recorded for "CC(=O)Nc1ccc(-c2nc3cc([N+](=O)[O-])ccc3[nH]2)cc1"
> 100 µM

Respond only with CC50 recorded for "O=C(CCl)Nc1ccc(-c2nc3cc(C(F)(F)F)ccc3n2C23CC4CC(CC(C4)C2)C3)cc1"
> 100 µM

Respond only with CC50 recorded for "O=C(CN1CCSCC1)Nc1ccc(-c2nc3cc(C(F)(F)F)ccc3[nH]2)cc1"
> 100 µM

Respond only with CC50 recorded for "CCC(=O)Nc1ccc(-c2nc3ccccc3[nH]2)cc1"
> 100 µM

Respond only with CC50 recorded for "O=C(CN1CCOCC1)Nc1ccc(-c2nc3cc(Cl)c(Cl)cc3[nH]2)cc1"
> 100 µM

Respond only with CC50 recorded for "CCC(=O)Nc1ccc(-c2nc3cc(C(F)(F)F)ccc3[nH]2)cc1"
> 100 µM

Respond only with CC50 recorded for "CC(=O)Nc1ccc(-c2nc3cc(C(F)(F)F)ccc3n2C2CCCCC2)cc1"
30 µM

Respond only with CC50 recorded for "Nc1nc2c(ncn2COCCO)c(=O)[nH]1"
> 100 µM

Respond only with CC50 recorded for "CCC(=O)Nc1ccc(-c2nc3cc(C(F)(F)F)ccc3n2C)cc1"
> 100 µM

Respond only with CC50 recorded for "COc1ccc(-c2nc3cc(C(F)(F)F)ccc3[nH]2)cc1"
15 µM

Respond only with CC50 recorded for "O=C(CN1CCN(c2ccccc2)CC1)Nc1ccc(-c2nc3cc(C(F)(F)F)ccc3[nH]2)cc1"
> 100 µM
